Test: Protein binding in human plasma
Assay type: ADME, cell-free
Settings: read-out: PPB (converted)
Provide the reported fraction unbound of each item.
Output spec: single numeric token, no unit.

In one line, give reported fraction unbound of the entry "Cc1ccc([C@@H](C)Oc2cc3onc(CCC(=O)O)c3cc2Cl)nn1" .
0.071

In one line, give reported fraction unbound of the entry "C[C@@H](Oc1cc2oc(=O)n(CCC(=O)O)c2cc1Cl)c1ccc(Cl)cn1.NC(CO)(CO)CO" .
0.01

In one line, give reported fraction unbound of the entry "CCc1cc2oc(=O)n(CCC(=O)O)c2cc1Cl.NC(CO)(CO)CO" .
0.013

In one line, give reported fraction unbound of the entry "NC(CO)(CO)CO.O=C(O)CCn1c(=O)oc2cc(OCc3ccccn3)c(Cl)cc21" .
0.074

In one line, give reported fraction unbound of the entry "Cc1cc2oc(=O)n(CCC(=O)O)c2cc1Cl" .
0.024
